protocol-notes: clinical
condition-label: human, plasma, po, 1 mg
measured-quantity: concentration at 6 h (ng/mL)
Answer in ng/mL, number only, no unit symbol.

Look up and state reported concentration at 6 h for CCOc1cc(CC(=O)NC(CC(C)C)c2ccccc2N2CCCCC2)ccc1C(=O)O (racemic) [AG-EE 388 ZW]
3.5

###

protocol-notes: Study 3: plasma concentration of active substance, single test subject
Format: in vivo, human
condition-label: human, plasma, po, 2 mg; read-out: Time of peak concentration
measured-quantity: Tmax
Quick note: unit goes after the number.

Report Tmax for CCOc1cc(CC(=O)NC(CC(C)C)c2ccccc2N2CCCCC2)ccc1C(=O)O (racemic) [AG-EE 388 ZW]
1.75 h

###

protocol-notes: Study 2: plasma concentration, HPLC
Assay type: in vivo, human
condition-label: human, plasma, po, 2 mg, 2 mg tablet, 0.50 h
measured-quantity: concentration at 0.5 h (ng/mL)
Your answer should be a plain number; it is taken to be in ng/mL.

Annotate the compound CCOc1cc(CC(=O)NC(CC(C)C)c2ccccc2N2CCCCC2)ccc1C(=O)O (racemic) [AG-EE 388 ZW] with its measured concentration at 0.5 h.
75.6

###

protocol-notes: clinical
condition-label: human, plasma, po, 0.5 mg
measured-quantity: AUC(0-inf)

Respond only with AUC(0-inf) recorded for "CCOc1cc(CC(=O)N[C@@H](CC(C)C)c2ccccc2N2CCCCC2)ccc1C(=O)O"
0.0143 µg·h/mL

###

protocol-notes: clinical
condition-label: human, plasma, po, 0.5 mg
measured-quantity: concentration at 0.25 h (ng/mL)
Quick reminder: number only, in ng/mL, skip the unit.

Name the recorded concentration at 0.25 h of the item "CCOc1cc(CC(=O)N[C@@H](CC(C)C)c2ccccc2N2CCCCC2)ccc1C(=O)O" in your answer.
8.4

###

protocol-notes: Study 2: plasma concentration, HPLC
Type: in vivo, human
condition-label: human, plasma, po, 2 mg, 2 mg capsule, 0.20 h
measured-quantity: concentration at 0.2 h (ng/mL)
The answer is to be given in ng/mL; state only the numeric part.

// fetch concentration at 0.2 h given entry CCOc1cc(CC(=O)NC(CC(C)C)c2ccccc2N2CCCCC2)ccc1C(=O)O (racemic)
0.9

###

protocol-notes: Study 3: plasma concentration of active substance, single test subject
Assay type: in vivo, human
condition-label: human, plasma, po; 2 mg, 1.00 h
measured-quantity: concentration at 1 h (ng/mL)
Note: unit ng/mL is implicit; provide only the numeric part.

Output concentration at 1 h of CCOc1cc(CC(=O)NC(CC(C)C)c2ccccc2N2CCCCC2)ccc1C(=O)O (racemic) [AG-EE 388 ZW]
40

###

protocol-notes: Study 2: plasma concentration, HPLC
Type: in vivo, human
condition-label: human, plasma, po, 2 mg, 2 mg tablet, 0.75 h
measured-quantity: concentration at 0.75 h

// Input: CCOc1cc(CC(=O)NC(CC(C)C)c2ccccc2N2CCCCC2)ccc1C(=O)O (racemic) . Output its concentration at 0.75 h only.
83.5 ng/mL

###

protocol-notes: Study 3: plasma concentration of active substance, single test subject
Type: in vivo, human
condition-label: human, plasma, po; 2 mg, 2.00 h
Examples of molecules with documented concentration at 2 h follow.
State the value with its unit after it.

molecule: CCOc1cc(CC(=O)N[C@@H](CC(C)C)c2ccccc2N2CCCCC2)ccc1C(=O)O
measured-quantity: concentration at 2 h
test-value: 7 ng/mL

Turning to the following molecule.
For the molecule CCOc1cc(CC(=O)NC(CC(C)C)c2ccccc2N2CCCCC2)ccc1C(=O)O (racemic) , give its reported concentration at 2 h.
82 ng/mL
